# Protocol description: xn = mol fraction of the nth substance listed
# Condition info: 308.15 K; 101 kPa; Liquid; Vibrating tube method; x1 = 0.5
Metric: mass density (kg/m3)

INSERT INTO results (compound, metric, measurement_unit, numeric_readout) VALUES
  ('CCCC(=O)OCC [ethyl butanoate] + CCCCCCO', 'mass density', 'kg/m3', 834.75),
  ('CCCC(=O)OCC [ethyl butanoate] + CC(C)CCO', 'mass density', 'kg/m3', 832.19),
  ('CCCC(=O)OCC [ethyl butanoate] + CCCCO', 'mass density', 'kg/m3', 835.01),
  ('CCCC(=O)OCC [ethyl butanoate] + CC(C)CO', 'mass density', 'kg/m3', 831.14);
